Give measured T/C for each item. Keep answers brief.
Tested on: L1210 leukemia ip in BDF1 mice, survival T/C
Assay: NCI In Vivo Anticancer Drug Screen. Data for tumor model L1210 Leukemia (intraperitoneal) in B6D2F1 (BDF1) mice
Conditions: endpoint: mean survival time; dose: 200.0 mg/kg/injection; schedule: Q01DX009 (ip); vehicle: saline with Tween-80; higher = longer survival
Toxic doses and inconclusive results are not listed.

Query: I am curious: what T/C value has been reported for `CC1(C)COC(c2ccccc2)=N1` ?
Response: 103 % of control

Query: Proceed to `CCCCCCCCCCCCCCC(=O)N/N=C/c1ccc([N+](=O)[O-])s1`
Response: 88 % of control

Query: Proceed to `CCN(CC)CC(=O)Nc1cccc2c1C(=O)c1c(c(O)c3ccccc3c1O)C2=O`
Response: 98 % of control

Query: Proceed to CCCCCCC(C)O[Si](C)c1ccccc1C (stereo not drawn)
Response: 100 % of control

Query: Proceed to `COc1ccc(-c2nc(-c3cccc(O)c3)[nH]c2-c2ccc(OC)cc2)cc1`
Response: 98 % of control

Query: Proceed to `COC(=O)[C@@H]1C2C=CC(C2)[C@@H]1C(=O)OC`
Response: 104 % of control

Query: Proceed to `COc1ccc(C)cc1NC(=O)OCCOc1cc(C)c(Cl)c(C)c1`
Response: 87 % of control

Query: Proceed to `COc1cc(C)ccc1Cl`
Response: 110 % of control

Query: Proceed to `O=C(O)CCC(=O)c1cccc([N+](=O)[O-])c1`
Response: 87 % of control

Query: Proceed to `CCOCc1nc2nc(Cl)c(Cl)nc2[nH]1`
Response: 87 % of control

Query: Proceed to `CCOC(OCC)c1c(Cl)cccc1Cl`
Response: 88 % of control

Query: Proceed to `CC1(C)c2ccccc2Nc2ccccc21`
Response: 89 % of control

Query: Proceed to `C=COCCOC`
Response: 101 % of control

* * *

Tested on: L1210 leukemia ip in BDF1 mice, survival T/C
Assay: NCI In Vivo Anticancer Drug Screen. Data for tumor model L1210 Leukemia (intraperitoneal) in B6D2F1 (BDF1) mice
Conditions: endpoint: mean survival time; dose: 400.0 mg/kg/injection; schedule: Q04DX002 (ip); vehicle: saline; higher = longer survival
Inconclusive results and toxic doses are left out.
Give measured T/C for each item. Keep answers brief.

Query: I am curious: what T/C value has been reported for `Cn1c(C=O)cc2ccccc21` ?
Response: 100 % of control

Query: Proceed to `C[N+](C)(C)CCCS(=O)(=O)[O-]`
Response: 95 % of control

Query: Proceed to `CCOC(=O)Oc1ccc(Br)cc1Br`
Response: 104 % of control

Query: Proceed to `CCN(CC#CCOc1ccc(Br)cc1)c1ccccc1`
Response: 99 % of control

Query: Proceed to CC1(c2ccccc2)CC1(Br)Br (configuration not stated)
Response: 100 % of control

Query: Proceed to CCCCOC(=O)C(C)(O)C(Cl)c1ccccc1 (configuration not stated)
Response: 91 % of control

Query: Proceed to `CCOC(=O)/C=C\SCC(=O)OCC`
Response: 93 % of control

* * *

Test system: L1210 leukemia ip in BDF1 mice, survival T/C
Assay: NCI In Vivo Anticancer Drug Screen. Data for tumor model L1210 Leukemia (intraperitoneal) in B6D2F1 (BDF1) mice
Conditions: endpoint: mean survival time; dose: 200.0 mg/kg/injection; schedule: Q01DX001 (ip); vehicle: saline; higher = longer survival
Toxic doses and inconclusive results are not listed.
measure.name: T/C

Query: I am curious: what T/C value has been reported for `CCCn1c(N)cc(=O)[nH]c1=S` ?
Response: 100 % of control

Query: Proceed to CN(CC(O)CN)c1ccccc1 (configuration not stated)
Response: 94 % of control

Query: Proceed to O=C1CCC(N2C(=O)c3ccccc3C2=O)C(=O)N1 (configuration not stated)
Response: 111 % of control

Query: Proceed to `CC(C)(CO)N=Cc1ccccc1Cl`
Response: 100 % of control

Query: Proceed to O=C1CC(c2ccc(O)cc2)C2(O1)C(=O)OC(C(O)CO)C2O (configuration not stated)
Response: 101 % of control

Query: Proceed to `NC(=Nc1ccc(Cl)cc1)N/N=C/c1ccc(Cl)cc1`
Response: 89 % of control

Query: Proceed to COC(=O)C1C(C(=O)OC)C2C3OC(=O)C(C2C(=O)OC)C1C3C (configuration not stated)
Response: 98 % of control

Query: Proceed to `O=C(N/N=C/C=C/c1ccccc1)[C@H](O)[C@@H](O)C(=O)N/N=C/C=C/c1ccccc1`
Response: 93 % of control

Query: Proceed to O=[N+]([O-])c1ccc(S(=O)(=O)CC(Cl)c2ccccc2)cc1 (configuration not stated)
Response: 107 % of control

Query: Proceed to `Oc1ccc(/C=N/N2CCN(/N=C/c3ccc(O)cc3O)CC2)c(O)c1`
Response: 94 % of control

Query: Proceed to `Oc1ccc2c(c1)CNCC2`
Response: 98 % of control

Query: Proceed to `Oc1cccc(-c2nnc(-c3cccc(O)c3)nn2)c1`
Response: 96 % of control
